Biological target: CYP3A4 (Homo sapiens, UniProt P08684)
Sequence (P08684 whole entry): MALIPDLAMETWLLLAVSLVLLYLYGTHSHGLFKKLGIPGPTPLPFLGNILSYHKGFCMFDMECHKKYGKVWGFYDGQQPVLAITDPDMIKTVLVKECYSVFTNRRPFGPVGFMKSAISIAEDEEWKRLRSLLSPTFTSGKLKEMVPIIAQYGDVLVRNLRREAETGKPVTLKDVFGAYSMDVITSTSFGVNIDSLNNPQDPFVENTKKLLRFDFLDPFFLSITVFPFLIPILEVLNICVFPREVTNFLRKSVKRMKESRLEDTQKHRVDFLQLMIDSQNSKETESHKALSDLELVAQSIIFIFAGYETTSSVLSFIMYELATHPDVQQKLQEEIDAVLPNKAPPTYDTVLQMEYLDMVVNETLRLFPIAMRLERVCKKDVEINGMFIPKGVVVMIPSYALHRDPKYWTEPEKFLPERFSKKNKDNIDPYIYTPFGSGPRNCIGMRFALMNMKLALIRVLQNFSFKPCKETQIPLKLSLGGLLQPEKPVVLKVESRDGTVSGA
Assay: DCF formation during CYP3A4-mediated metabolism of substrates (CYP3A4OR, DCFH-DA, NADPH)
Details: human, pH 7.4, Apparent Km by measurement of DCF formation, CYP3A4OR; DCFH-DA 2.5 μM; NADPH 1 mM; Michaelis-Menten fit
measurement.type: Km (µM)
Please respond with the number in µM and leave the unit unwritten.

Req: Return reported Km; argument: C[C@]12CC[C@H]3[C@@H](CCC4=CC(=O)CC[C@@]43C)[C@@H]1CC[C@@H]2O
Resp: 11.9
